Assay: Cytotoxicity against human HUVEC cells assessed as inhibition of cell growth incubated 1.5 hrs by MTT assay
Type: toxicity, cell-based
The entries below are paired with their reported IC50 at 1.5 h.
Reply with just the number (in µM).

IN: Need IC50 at 1.5 h of `O=c1[nH]cc(F)c(=O)[nH]1` , thanks.
OUT: 0.43

IN: Need IC50 at 1.5 h of `COc1cc2c(c(OC)c1OC)-c1ccc(OC)c(=O)cc1[C@@H](NC(C)=O)CC2` , thanks.
OUT: 9.62

IN: Need IC50 at 1.5 h of `CCOc1ccc([C@H]2CC(=O)c3cc(OC)c(OC)c(OC)c32)cc1F` , thanks.
OUT: 15

Values from ChEMBL document CHEMBL5329222
